# System: NCI-H2023
# protocol-text: relative viability (nuclei count vs DMSO), 5 days (fraction); higher = more cells survive
# condition-summary: first compound 0.253 µM
The reader will find reported relative viability values listed item by item below.
Please state the value as a number alone, without comment.

# molecule, relative viability
records = [
    ("O=c1[nH]c2ccccc2n1C1CCN(CCCC(c2ccc(F)cc2)c2ccc(F)cc2)CC1 [Pimozide] + O=C(CCCCCCC(=O)Nc1ccccc1)NO [Vorinostat] (partner 1 µM)", 0.747),
    ("O=c1[nH]c2ccccc2n1C1CCN(CCCC(c2ccc(F)cc2)c2ccc(F)cc2)CC1 [Pimozide] + CCNC(=O)c1noc(-c2cc(C(C)C)c(O)cc2O)c1-c1ccc(CN2CCOCC2)cc1 [Luminespib] (partner 0.01 µM)", 0.707),
    ("Cc1cnc(-c2cnc(NCCNc3ccc(C#N)cn3)nc2-c2ccc(Cl)cc2Cl)[nH]1 + COc1cccc2cc(-c3nc([C@H]4CC[C@H](C(=O)O)CC4)n4ncnc(N)c34)[nH]c12 [OSI-027] (partner 0.5 µM)", 0.395),
    ("O=c1[nH]c2ccccc2n1C1CCN(CCCC(c2ccc(F)cc2)c2ccc(F)cc2)CC1 [Pimozide] + CC1(C)CCC(c2ccc(Cl)cc2)=C(CN2CCN(c3ccc(C(=O)NS(=O)(=O)c4ccc(N[C@H](CCN5CCOCC5)CSc5ccccc5)c(S(=O)(=O)C(F)(F)F)c4)cc3)CC2)C1 [Navitoclax] (partner 0.5 µM)", 1.03),
    ("Cc1cnc(-c2cnc(NCCNc3ccc(C#N)cn3)nc2-c2ccc(Cl)cc2Cl)[nH]1 + CC(C)C[C@H](NC(=O)[C@H](Cc1ccccc1)NC(=O)c1cnccn1)B(O)O [Bortezomib] (partner 0.002 µM)", 0.651),
    ("O=c1[nH]c2ccccc2n1C1CCN(CCCC(c2ccc(F)cc2)c2ccc(F)cc2)CC1 [Pimozide] + CC(C)C[C@H](NC(=O)[C@H](Cc1ccccc1)NC(=O)c1cnccn1)B(O)O [Bortezomib] (partner 0.002 µM)", 0.996),
]

# next molecule below
For the molecule O=c1[nH]c2ccccc2n1C1CCN(CCCC(c2ccc(F)cc2)c2ccc(F)cc2)CC1 [Pimozide] + CS(=O)(=O)N1CCN(Cc2cc3nc(-c4cccc5[nH]ncc45)nc(N4CCOCC4)c3s2)CC1 [Pictilisib] (partner 1 µM) , give its measured relative viability value. 0.24

---

# Tested on: NCI-H2228
# protocol-text: relative viability (nuclei count vs DMSO), 5 days (fraction); higher = more cells survive
# condition-summary: first compound 0.1265 µM
The reader will find reported relative viability values listed item by item below.
Please state the value as a number alone, without comment.

# compound, relative viability
rows = [
    ("Cc1sc2c(c1C)C(c1ccc(Cl)cc1)=N[C@@H](CC(=O)OC(C)(C)C)c1nnc(C)n1-2 [JQ1] + CCNC(=O)c1noc(-c2cc(C(C)C)c(O)cc2O)c1-c1ccc(CN2CCOCC2)cc1 [Luminespib] (partner 0.01 µM)", 0.19),
    ("Cc1sc2c(c1C)C(c1ccc(Cl)cc1)=N[C@@H](CC(=O)OC(C)(C)C)c1nnc(C)n1-2 [JQ1] + Cc1nc(NC(=O)N2CCC[C@H]2C(N)=O)sc1-c1ccnc(C(C)(C)C(F)(F)F)c1 [Alpelisib] (partner 2 µM)", 0.602),
]

# next compound below
For the compound Cc1sc2c(c1C)C(c1ccc(Cl)cc1)=N[C@@H](CC(=O)OC(C)(C)C)c1nnc(C)n1-2 [JQ1] + COc1cc2c(Oc3ccc(NC(=O)C4(C(=O)Nc5ccc(F)cc5)CC4)cc3F)ccnc2cc1OCCCN1CCOCC1 [Foretinib] (partner 0.25 µM) , give its measured relative viability value. 0.766

---

# Test system: SK-LU-1
# protocol-text: relative viability (nuclei count vs DMSO), 5 days (fraction); higher = more cells survive
# condition-summary: first compound 0.5 µM
measured-quantity: relative viability
Please state the value as a number alone, without comment.

# compound, target-system, measured-quantity, observed-result
rows = [
    ("COc1cc2nccc(Oc3ccc(NC(=O)Nc4cc(C)on4)c(Cl)c3)c2cc1OC [Tivozanib] + CC(=O)c1c(C)c2cnc(Nc3ccc(N4CCNCC4)cn3)nc2n(C2CCCC2)c1=O [Palbociclib] (partner 0.5 µM)", "SK-LU-1", "relative viability", 0.37),
    ("COc1cc2nccc(Oc3ccc(NC(=O)Nc4cc(C)on4)c(Cl)c3)c2cc1OC [Tivozanib] + C[C@@H](Oc1cc(-c2cnn(C3CCNCC3)c2)cnc1N)c1c(Cl)ccc(F)c1Cl [Crizotinib] (partner 1 µM)", "SK-LU-1", "relative viability", 0.84),
    ("Nc1ccn([C@@H]2O[C@H](CO)[C@@H](O)[C@@H]2O)c(=O)n1 [Cytarabine] + COc1cc2c(Oc3ccc(NC(=O)C4(C(=O)Nc5ccc(F)cc5)CC4)cc3F)ccnc2cc1OCCCN1CCOCC1 [Foretinib] (partner 0.25 µM)", "SK-LU-1", "relative viability", 0.23),
]

# next compound below
State relative viability (SK-LU-1) of COc1cc2nccc(Oc3ccc(NC(=O)Nc4cc(C)on4)c(Cl)c3)c2cc1OC [Tivozanib] + CC(C)C[C@H](NC(=O)[C@H](Cc1ccccc1)NC(=O)c1cnccn1)B(O)O [Bortezomib] (partner 0.002 µM) . 0.907

---

# System: HCC-827
# protocol-text: relative viability (nuclei count vs DMSO), 5 days (fraction); higher = more cells survive
# condition-summary: first compound 1.265 µM
measured-quantity: relative viability
Please state the value as a number alone, without comment.

Here's what some known entries look like.
# compound, relative viability
measured = [
    ("Cc1sc2c(c1C)C(c1ccc(Cl)cc1)=N[C@@H](CC(=O)OC(C)(C)C)c1nnc(C)n1-2 [JQ1] + Nc1nc2[nH]cc(CCc3ccc(C(=O)N[C@@H](CCC(=O)O)C(=O)O)cc3)c2c(=O)[nH]1 [Pemetrexed] (partner 0.2 µM)", 0.211),
    ("Cc1sc2c(c1C)C(c1ccc(Cl)cc1)=N[C@@H](CC(=O)OC(C)(C)C)c1nnc(C)n1-2 [JQ1] + Cc1nc(Nc2ncc(C(=O)Nc3c(C)cccc3Cl)s2)cc(N2CCN(CCO)CC2)n1 [Dasatinib] (partner 0.075 µM)", 0.438),
    ("Cc1sc2c(c1C)C(c1ccc(Cl)cc1)=N[C@@H](CC(=O)OC(C)(C)C)c1nnc(C)n1-2 [JQ1] + Cc1nc(NC(=O)N2CCC[C@H]2C(N)=O)sc1-c1ccnc(C(C)(C)C(F)(F)F)c1 [Alpelisib] (partner 2 µM)", 1.07),
]

# next compound below
For the compound Cc1sc2c(c1C)C(c1ccc(Cl)cc1)=N[C@@H](CC(=O)OC(C)(C)C)c1nnc(C)n1-2 [JQ1] + CS(=O)(=O)CCNCc1ccc(-c2ccc3ncnc(Nc4ccc(OCc5cccc(F)c5)c(Cl)c4)c3c2)o1 [Lapatinib] (partner 2 µM) , give its measured relative viability value. 0.189

---

The reader will find reported relative viability values listed item by item below.
# Tested on: LC-2-ad
# protocol-text: relative viability (nuclei count vs DMSO), 5 days (fraction); higher = more cells survive
# condition-summary: first compound 2.53 µM
Please state the value as a number alone, without comment.

Here's what some known entries look like.
# compound, measured-quantity, observed-result
rows = [
    ("Cc1cnc(-c2cnc(NCCNc3ccc(C#N)cn3)nc2-c2ccc(Cl)cc2Cl)[nH]1 + CC1(C)CCC(c2ccc(Cl)cc2)=C(CN2CCN(c3ccc(C(=O)NS(=O)(=O)c4ccc(N[C@H](CCN5CCOCC5)CSc5ccccc5)c(S(=O)(=O)C(F)(F)F)c4)cc3)CC2)C1 [Navitoclax] (partner 0.5 µM)", "relative viability", 0.5),
    ("Cc1cnc(-c2cnc(NCCNc3ccc(C#N)cn3)nc2-c2ccc(Cl)cc2Cl)[nH]1 + C[C@]1(O)C[C@@H](c2nc(-c3ccc4ccc(-c5ccccc5)nc4c3)c3c(N)nccn32)C1 [Linsitinib] (partner 1 µM)", "relative viability", 0.92),
    ("O=c1[nH]c2ccccc2n1C1CCN(CCCC(c2ccc(F)cc2)c2ccc(F)cc2)CC1 [Pimozide] + O=C(c1cc(Cc2n[nH]c(=O)c3ccccc23)ccc1F)N1CCN(C(=O)C2CC2)CC1 [Olaparib] (partner 8 µM)", "relative viability", 0.668),
    ("Cc1cnc(-c2cnc(NCCNc3ccc(C#N)cn3)nc2-c2ccc(Cl)cc2Cl)[nH]1 + N=C(N)NC(=N)NCCc1ccccc1 [Phenformin] (partner 250 µM)", "relative viability", 0.487),
    ("Cc1cnc(-c2cnc(NCCNc3ccc(C#N)cn3)nc2-c2ccc(Cl)cc2Cl)[nH]1 + CC(=O)c1c(C)c2cnc(Nc3ccc(N4CCNCC4)cn3)nc2n(C2CCCC2)c1=O [Palbociclib] (partner 0.5 µM)", "relative viability", 0.436),
    ("Cc1cnc(-c2cnc(NCCNc3ccc(C#N)cn3)nc2-c2ccc(Cl)cc2Cl)[nH]1 + Nc1ncn([C@H]2C[C@H](O)[C@@H](CO)O2)c(=O)n1 [Decitabine] (partner 2 µM)", "relative viability", 0.776),
    ("Cc1cnc(-c2cnc(NCCNc3ccc(C#N)cn3)nc2-c2ccc(Cl)cc2Cl)[nH]1 + O=C(c1cc(Cc2n[nH]c(=O)c3ccccc23)ccc1F)N1CCN(C(=O)C2CC2)CC1 [Olaparib] (partner 8 µM)", "relative viability", 0.645),
    ("O=c1[nH]c2ccccc2n1C1CCN(CCCC(c2ccc(F)cc2)c2ccc(F)cc2)CC1 [Pimozide] + Nc1nc2[nH]cc(CCc3ccc(C(=O)N[C@@H](CCC(=O)O)C(=O)O)cc3)c2c(=O)[nH]1 [Pemetrexed] (partner 0.2 µM)", "relative viability", 0.265),
]

# next compound below
For the compound O=c1[nH]c2ccccc2n1C1CCN(CCCC(c2ccc(F)cc2)c2ccc(F)cc2)CC1 [Pimozide] + CC(=O)Nc1cccc(-n2c(=O)n(C3CC3)c(=O)c3c(Nc4ccc(I)cc4F)n(C)c(=O)c(C)c32)c1 [Trametinib] (partner 0.02 µM) , give its measured relative viability value. 0.904
